Listed next: entries and their corresponding TGI.
# Tested on: BT-549 breast
# Assay notes: NCI tumour cell line growth inhibition, 48 h

                                   compound  assay_endpoint   reported
0             BrCC[N+]12CC[N+](CCBr)(CC1)C2             TGI   > 100 µM
1  NC(=O)c1ccc(-c2nc(-c3ccc4c(c3)OCO4)c(-c3ccccn3)[nH]2)cc1             TGI  > 96.7 µM
2  CN(C)C(=O)c1cnc2oc3ccc(O)cc3c2c1-c1ccccc1             TGI    > 25 µM
3  CC(C)Oc1c(-c2ccc(F)cc2)c(O)c2c3c1oc(=O)n3C=CC2C (stereo unspecified)             TGI      28 µM

Prompt line: Give recorded TGI. "O=C(NNC(=O)c1csc(NC(=S)NC2CCCCC2)n1)c1ccccc1"
Response line: 46.5 µM

Prompt line: Give recorded TGI. "CC1=C(C(=O)N(C)c2ccc(Cl)c(C(=O)OC(C)C)c2)SCCO1"
Response line: > 100 µM
